// data source = paper PMC11111636

experiment: Ex vivo biodistribution in H69-tumor bearing mice; settings: mouse, in vivo, iv, Uptake in Heart, 4 h p.i., n = 4
measured-quantity: tissue uptake at 4 h (%ID/g)
Supply the numeric figure in %ID/g, leaving out any unit text.

q: Complete the entry with tissue uptake at 4 h for C[C@@H](O)[C@H](NC(=O)[C@@H]1CSSC[C@H](NC(=O)[C@@H](Cc2ccccc2)NC(=O)CN2CCN(CC(=O)O)CCN(CC(=O)O)CCN(CC(=O)O)CC2)C(=O)N[C@@H](Cc2ccc(O)cc2)C(=O)N[C@H](Cc2c[nH]c3ccccc23)C(=O)N[C@@H](CCCCN)C(=O)N[C@@H]([C@@H](C)O)C(=O)N1)C(=O)O [[^111In]In-DOTA-TATE, metal not drawn, reference compound]
a: 0.04

----------
assay: Ex vivo biodistribution in H69-tumor bearing mice; details: mouse, in vivo, iv, Uptake in Liver, 4 h p.i., n = 4
measured-quantity: tissue uptake at 4 h (%ID/g)
Lab book: enter the figure in %ID/g, no units written.

q: Indicate the recorded tissue uptake at 4 h value for this compound: C[C@@H](O)[C@H](NC(=O)[C@@H]1CSSC[C@H](NC(=O)[C@@H](Cc2ccccc2)NC(=O)CN2CCN(CC(=O)O)CCN(CC(=O)O)CCN(CC(=O)O)CC2)C(=O)N[C@@H](Cc2ccc(O)cc2)C(=O)N[C@H](Cc2c[nH]c3ccccc23)C(=O)N[C@@H](CCCCN)C(=O)N[C@@H]([C@@H](C)O)C(=O)N1)C(=O)O [[^111In]In-DOTA-TATE, metal not drawn, reference compound]
a: 0.16

----------
assay: Ex vivo biodistribution in H69-tumor bearing mice; conditions: mouse, in vivo, iv, Uptake in Bones, 24 h p.i., n = 4
measured-quantity: tissue uptake at 24 h (%ID/g)
Give the value, in units of %ID/g, as a plain number.

q: Return tissue uptake at 24 h (reported value) for this compound: C[C@@H](O)[C@H](NC(=O)[C@@H]1CSSC[C@H](NC(=O)[C@@H](Cc2ccccc2)NC(=O)CN2CCN(CC(=O)O)CCN(CC(=O)O)CCN(CC(=O)O)CC2)C(=O)N[C@@H](Cc2ccc(O)cc2)C(=O)N[C@H](Cc2c[nH]c3ccccc23)C(=O)N[C@@H](CCCCN)C(=O)N[C@@H]([C@@H](C)O)C(=O)N1)C(=O)O [[^111In]In-DOTA-TATE, metal not drawn, reference compound]
a: 0.14

----------
Experiment: Ex vivo biodistribution in H69-tumor bearing mice
Conditions: mouse, in vivo, Uptake in Stomach, 4 h block (co-injected 50 nmol DOTA-TATE), n = 4
Experimental: Six-week‐old female Balb/c nu/nu‐specific mice (Janvier Labs, Le Genest‐Saint‐Isle, France) were housed in individually ventilated cages (4 mice/cage). Upon arrival, mice were acclimated for one week, with access to food and water ad libitum. Mice were subcutaneously inoculated on the right shoulder with NCI-H69 cells (5 × 10^6 cells) suspended in 100 μL of 1/3 Matrigel (Corning Inc.; Corning, NY, USA) and 2/3 Hank’s balanced salt solution (Gibco; Paisley, UK). […]
measured-quantity: tissue uptake at 4 h (%ID/g)
Write the number in %ID/g without appending the unit.

q: Read the entry C[C@@H](O)[C@H](NC(=O)[C@@H]1CSSC[C@H](NC(=O)[C@@H](Cc2ccccc2)NC(=O)CN2CCN(CC(=O)O)CCN(CC(=O)O)CCN(CC(=O)O)CC2)C(=O)N[C@@H](Cc2ccc(O)cc2)C(=O)N[C@H](Cc2c[nH]c3ccccc23)C(=O)N[C@@H](CCCCN)C(=O)N[C@@H]([C@@H](C)O)C(=O)N1)C(=O)O [[^111In]In-DOTA-TATE, metal not drawn, reference compound] and write its reported tissue uptake at 4 h.
a: 0.1

----------
assay: Ex vivo biodistribution in H69-tumor bearing mice; details: mouse, in vivo, iv, Uptake in Spleen, 4 h p.i., n = 4
measured-quantity: tissue uptake at 4 h (%ID/g)
# value in %ID/g; strip the unit string

q: Return the recorded tissue uptake at 4 h value; entry: C[C@@H](O)[C@H](NC(=O)[C@@H]1CSSC[C@H](NC(=O)[C@@H](Cc2ccccc2)NC(=O)CN2CCN(CC(=O)O)CCN(CC(=O)O)CCN(CC(=O)O)CC2)C(=O)N[C@@H](Cc2ccc(O)cc2)C(=O)N[C@H](Cc2c[nH]c3ccccc23)C(=O)N[C@@H](CCCCN)C(=O)N[C@@H]([C@@H](C)O)C(=O)N1)C(=O)O [[^111In]In-DOTA-TATE, metal not drawn, reference compound]
a: 0.13

----------
experiment: Ex vivo biodistribution in H69-tumor bearing mice; settings: mouse, in vivo, iv, Uptake in Lungs, 1 h p.i., n = 4
measured-quantity: tissue uptake at 1 h (%ID/g)
Give just the numeric value; %ID/g need not be written.

q: Give me measured tissue uptake at 1 h, please, for this compound: C[C@@H](O)[C@H](NC(=O)[C@@H]1CSSC[C@H](NC(=O)[C@@H](Cc2ccccc2)NC(=O)CN2CCN(CC(=O)O)CCN(CC(=O)O)CCN(CC(=O)O)CC2)C(=O)N[C@@H](Cc2ccc(O)cc2)C(=O)N[C@H](Cc2c[nH]c3ccccc23)C(=O)N[C@@H](CCCCN)C(=O)N[C@@H]([C@@H](C)O)C(=O)N1)C(=O)O [[^111In]In-DOTA-TATE, metal not drawn, reference compound]
a: 0.86

----------
Experiment: Ex vivo biodistribution in H69-tumor bearing mice
Conditions: mouse, in vivo, iv, Uptake in Pancreas, 4 h p.i., n = 4
Experimental: Six-week‐old female Balb/c nu/nu‐specific mice (Janvier Labs, Le Genest‐Saint‐Isle, France) were housed in individually ventilated cages (4 mice/cage). Upon arrival, mice were acclimated for one week, with access to food and water ad libitum. Mice were subcutaneously inoculated on the right shoulder with NCI-H69 cells (5 × 10^6 cells) suspended in 100 μL of 1/3 Matrigel (Corning Inc.; Corning, NY, USA) and 2/3 Hank’s balanced salt solution (Gibco; Paisley, UK). […]
measured-quantity: tissue uptake at 4 h (%ID/g)
// note: answer is a bare numeric in %ID/g

q: Using known records, supply tissue uptake at 4 h for C[C@@H](O)[C@H](NC(=O)[C@@H]1CSSC[C@H](NC(=O)[C@@H](Cc2ccccc2)NC(=O)CN2CCN(CC(=O)O)CCN(CC(=O)O)CCN(CC(=O)O)CC2)C(=O)N[C@@H](Cc2ccc(O)cc2)C(=O)N[C@H](Cc2c[nH]c3ccccc23)C(=O)N[C@@H](CCCCN)C(=O)N[C@@H]([C@@H](C)O)C(=O)N1)C(=O)O [[^111In]In-DOTA-TATE, metal not drawn, reference compound]
a: 1.3

----------
assay: Ex vivo biodistribution in H69-tumor bearing mice; conditions: mouse, in vivo, iv, Uptake in Tumor, 24 h p.i., n = 4
measured-quantity: tissue uptake at 24 h

q: # return recorded tissue uptake at 24 h for entry C[C@@H](O)[C@H](NC(=O)[C@@H]1CSSC[C@H](NC(=O)[C@@H](Cc2ccccc2)NC(=O)CN2CCN(CC(=O)O)CCN(CC(=O)O)CCN(CC(=O)O)CC2)C(=O)N[C@@H](Cc2ccc(O)cc2)C(=O)N[C@H](Cc2c[nH]c3ccccc23)C(=O)N[C@@H](CCCCN)C(=O)N[C@@H]([C@@H](C)O)C(=O)N1)C(=O)O [[^111In]In-DOTA-TATE, metal not drawn, reference compound]
a: ~3 %ID/g

----------
assay: Ex vivo biodistribution in H69-tumor bearing mice; details: mouse, in vivo, iv, Uptake in Intestines, 4 h p.i., n = 4
measured-quantity: tissue uptake at 4 h (%ID/g)
Respond with the bare value in %ID/g.

q: Tell me tissue uptake at 4 h reported for C[C@@H](O)[C@H](NC(=O)[C@@H]1CSSC[C@H](NC(=O)[C@@H](Cc2ccccc2)NC(=O)CN2CCN(CC(=O)O)CCN(CC(=O)O)CCN(CC(=O)O)CC2)C(=O)N[C@@H](Cc2ccc(O)cc2)C(=O)N[C@H](Cc2c[nH]c3ccccc23)C(=O)N[C@@H](CCCCN)C(=O)N[C@@H]([C@@H](C)O)C(=O)N1)C(=O)O [[^111In]In-DOTA-TATE, metal not drawn, reference compound]
a: 0.77

----------
assay: Ex vivo biodistribution in H69-tumor bearing mice; settings: mouse, in vivo, iv, Uptake in Muscle, 24 h p.i., n = 4
measured-quantity: tissue uptake at 24 h (%ID/g)
# value in %ID/g; strip the unit string

q: Recall and state the measured tissue uptake at 24 h for C[C@@H](O)[C@H](NC(=O)[C@@H]1CSSC[C@H](NC(=O)[C@@H](Cc2ccccc2)NC(=O)CN2CCN(CC(=O)O)CCN(CC(=O)O)CCN(CC(=O)O)CC2)C(=O)N[C@@H](Cc2ccc(O)cc2)C(=O)N[C@H](Cc2c[nH]c3ccccc23)C(=O)N[C@@H](CCCCN)C(=O)N[C@@H]([C@@H](C)O)C(=O)N1)C(=O)O [[^111In]In-DOTA-TATE, metal not drawn, reference compound] .
a: 0.01
